# assayed_target: thromboxane synthetase enzyme (Rattus norvegicus, UniProt P49430)
# Construct: endogenous in cells; host or cells: washed platelets from arterial blood of male Okamoto-Aoki spontaneously hypertensive rats (animals from Taconic Farms, Germantown, N.Y.)
# Sequence (P49430 1-533): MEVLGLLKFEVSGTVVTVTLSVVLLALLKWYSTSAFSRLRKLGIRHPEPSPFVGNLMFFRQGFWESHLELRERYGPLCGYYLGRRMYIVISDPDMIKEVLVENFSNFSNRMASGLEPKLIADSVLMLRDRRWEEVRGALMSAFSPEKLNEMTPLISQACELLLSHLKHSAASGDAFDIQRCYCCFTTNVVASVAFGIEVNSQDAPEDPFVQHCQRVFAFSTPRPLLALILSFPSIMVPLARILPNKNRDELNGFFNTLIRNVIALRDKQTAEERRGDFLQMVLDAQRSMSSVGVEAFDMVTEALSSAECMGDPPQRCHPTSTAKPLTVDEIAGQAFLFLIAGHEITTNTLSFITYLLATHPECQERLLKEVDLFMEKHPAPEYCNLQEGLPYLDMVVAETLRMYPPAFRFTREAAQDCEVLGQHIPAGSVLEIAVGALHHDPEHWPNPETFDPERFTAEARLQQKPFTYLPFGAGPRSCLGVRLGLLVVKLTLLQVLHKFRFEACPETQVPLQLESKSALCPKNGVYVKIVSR
# experiment_summary: Thromboxane synthetase enzyme inhibition (TXB2 formation in washed platelets, RIA)
# Assay type: cell-based, spontaneously hypertensive rat
# applied_conditions: 1×10^-4 Molar; SHR platelets, 10 min at 37° C.; read-out: % Inhibition (Thromboxane Synthetase Enzyme Inhibition)
reported_property: inhibition at 100 µM (%)
One number for each entry, in %.

These recorded examples may help you get a feel for the data.
O=C(O)/C=C/C(=O)O.c1ccc(OCCNC2=Nc3cccc4cccc2c34)nc1 [fumarate] :: 88
Brc1ccc2c3c(cccc13)C(NCCCCCCCCCCCCn1ccnc1)=N2 :: 90

Give measured inhibition at 100 µM for every item shown.
1. c1cc2c3c(cccc3c1)C(NCCc1ccncc1)=N2
2. Brc1ccc2c3c(cccc13)C(NCCCCc1cccnc1)=N2
3. O=C(c1ccccc1)N(CCCn1cncn1)C1=Nc2cccc3cccc1c23
4. O=C(c1ccc(Cl)cc1)N(CCCCn1ccnc1)C1=Nc2cccc3cccc1c23
5. Clc1ccc(C(Cn2ccnc2)NC2=Nc3cccc4cccc2c34)cc1 (centres unmarked) [fumarate]
6. c1ccc(CNC2=Nc3cccc4cccc2c34)nc1 [fumarate]
7. c1cc2c3c(cccc3c1)C(NCCCn1ccnc1)=N2 [fumarate]
8. C(=C\Cn1ccnc1)/CNC1=Nc2cccc3cccc1c23

1. 88
2. 92
3. 77
4. 96
5. 35
6. 95
7. 92
8. 100
